The following substances are listed with their measured Activity of Nav1.7 with peptide (percentage of the reference compound) values.
target: Nav1.7 (Homo sapiens, UniProt Q15858); construct: host or cells: HEK293 or CHO; test: cell-based; format: cell-based; settings: peptide at 20 μM; first of two Nav1.7 columns (probably TP1); 100% = no change
Write the value in % as a bare number.

Solved entries:
Substance	Uom	Measured
10 (GSQVQTNVKCQGGSCASVCRREIGVAAGKCINGKCVCYRN) [compound 10]	%	106
14 (GSDRDSCIDKSRCSKYGYYQECQDCCKKAGHNGGTCMFFKCKCA) [compound 14]	%	72
3 (GSSEKDCIKHLQRCRENKDCCSKKCSRRGTNPEKRCR) [compound 3]	%	90
36 (GSAQEPVKGPVSTKPGSCPIILIRCAMLNPPNRCLKDTDCPGIKKCCEGSCGMACFVPQ) [compound 36]	%	91
15 (GSAVCNLKRCQLSCRSLGLLGKCIGDKCECVKHG) [compound 15]	%	75
4 (GSSCAKPRENCNRMNILCCRGECVCPTFGDCFCYGD) [compound 4]	%	96
2 (GSEVIRCSGSKQCYGPCKQQTGCTNSKCMNKVCKCYGCG) [compound 2]	%	61
16 (GSQFCGTNGKPCVNGQCCGALRCVVTYHYADGVCLKMNP) [compound 16]	%	66

Missing value: Activity of Nav1.7 with peptide (percentage of the reference compound), Nav1.7 (Homo sapiens, UniProt Q15858), entry 22 (GSSDYCSNDFCFFSCRRDRCARGDCENGKCVCKNCHLN) [compound 22] . Fill in?
94

----------
biological target: Cav2.1 (Homo sapiens); construct: host or cells: HEK293 or CHO; test: cell-based; details: peptide at 0.2 μM; 100% = no change, <100% = inhibition
Reported Activity of Cav2.1 with peptide, expressed as a percentage of the reference compound by item:
Field: numeric (%). Do not append units.

Below: 2 substances and their reported Activity of Cav2.1 with peptide, expressed as a percentage of the reference compound.
Substance	Measured
17 (GSRPTDIKCSASYQCFPVCKSRFGKTNGRCVNGLCDCF) [compound 17]	107
36 (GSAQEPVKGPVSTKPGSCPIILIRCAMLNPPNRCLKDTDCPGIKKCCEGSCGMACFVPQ) [compound 36]	96

State the recorded Activity of Cav2.1 with peptide, expressed as a percentage of the reference compound for this entry: 26 (GSVVIGQRCYRSPDCYSACKKLVGKATGKCTNGRCDC) [compound 26]
115

----------
Below: a set of entries, each annotated with reported Activity of Cav2.1 with peptide (percentage of the reference compound).
target: Cav2.1 (Homo sapiens, UniProt O00555); construct: host or cells: HEK293 or CHO; experiment: cell-based; conditions: peptide at 20 μM; 100% = no change, <100% = inhibition
Sequence (P54289 25-1103): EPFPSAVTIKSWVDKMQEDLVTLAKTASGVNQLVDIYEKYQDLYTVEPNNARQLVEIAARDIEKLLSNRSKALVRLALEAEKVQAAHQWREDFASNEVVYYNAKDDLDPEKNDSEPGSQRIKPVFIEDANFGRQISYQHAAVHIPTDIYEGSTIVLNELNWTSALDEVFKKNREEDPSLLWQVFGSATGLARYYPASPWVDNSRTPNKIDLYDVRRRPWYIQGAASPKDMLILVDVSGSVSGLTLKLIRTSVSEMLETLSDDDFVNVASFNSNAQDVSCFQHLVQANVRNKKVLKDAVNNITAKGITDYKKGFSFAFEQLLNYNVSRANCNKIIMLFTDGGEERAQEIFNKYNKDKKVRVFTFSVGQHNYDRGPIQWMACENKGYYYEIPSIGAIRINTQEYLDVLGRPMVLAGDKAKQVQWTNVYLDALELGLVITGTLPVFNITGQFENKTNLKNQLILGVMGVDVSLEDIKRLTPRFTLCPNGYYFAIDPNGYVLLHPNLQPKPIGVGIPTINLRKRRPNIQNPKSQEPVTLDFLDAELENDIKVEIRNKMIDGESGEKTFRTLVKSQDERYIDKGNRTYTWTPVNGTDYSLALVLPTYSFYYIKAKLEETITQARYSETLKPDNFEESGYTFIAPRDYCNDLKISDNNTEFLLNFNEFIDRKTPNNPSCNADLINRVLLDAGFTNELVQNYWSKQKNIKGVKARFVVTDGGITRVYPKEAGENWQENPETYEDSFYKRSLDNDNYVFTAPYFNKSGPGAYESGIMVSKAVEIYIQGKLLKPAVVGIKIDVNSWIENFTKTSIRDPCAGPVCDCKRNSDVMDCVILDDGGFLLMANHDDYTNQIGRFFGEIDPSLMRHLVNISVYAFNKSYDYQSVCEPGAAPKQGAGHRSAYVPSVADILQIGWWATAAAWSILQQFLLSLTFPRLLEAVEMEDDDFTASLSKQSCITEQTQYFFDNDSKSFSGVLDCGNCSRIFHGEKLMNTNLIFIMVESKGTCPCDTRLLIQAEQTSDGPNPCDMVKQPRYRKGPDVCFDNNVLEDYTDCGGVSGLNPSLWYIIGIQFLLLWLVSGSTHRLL
Sequence (O00555 whole entry): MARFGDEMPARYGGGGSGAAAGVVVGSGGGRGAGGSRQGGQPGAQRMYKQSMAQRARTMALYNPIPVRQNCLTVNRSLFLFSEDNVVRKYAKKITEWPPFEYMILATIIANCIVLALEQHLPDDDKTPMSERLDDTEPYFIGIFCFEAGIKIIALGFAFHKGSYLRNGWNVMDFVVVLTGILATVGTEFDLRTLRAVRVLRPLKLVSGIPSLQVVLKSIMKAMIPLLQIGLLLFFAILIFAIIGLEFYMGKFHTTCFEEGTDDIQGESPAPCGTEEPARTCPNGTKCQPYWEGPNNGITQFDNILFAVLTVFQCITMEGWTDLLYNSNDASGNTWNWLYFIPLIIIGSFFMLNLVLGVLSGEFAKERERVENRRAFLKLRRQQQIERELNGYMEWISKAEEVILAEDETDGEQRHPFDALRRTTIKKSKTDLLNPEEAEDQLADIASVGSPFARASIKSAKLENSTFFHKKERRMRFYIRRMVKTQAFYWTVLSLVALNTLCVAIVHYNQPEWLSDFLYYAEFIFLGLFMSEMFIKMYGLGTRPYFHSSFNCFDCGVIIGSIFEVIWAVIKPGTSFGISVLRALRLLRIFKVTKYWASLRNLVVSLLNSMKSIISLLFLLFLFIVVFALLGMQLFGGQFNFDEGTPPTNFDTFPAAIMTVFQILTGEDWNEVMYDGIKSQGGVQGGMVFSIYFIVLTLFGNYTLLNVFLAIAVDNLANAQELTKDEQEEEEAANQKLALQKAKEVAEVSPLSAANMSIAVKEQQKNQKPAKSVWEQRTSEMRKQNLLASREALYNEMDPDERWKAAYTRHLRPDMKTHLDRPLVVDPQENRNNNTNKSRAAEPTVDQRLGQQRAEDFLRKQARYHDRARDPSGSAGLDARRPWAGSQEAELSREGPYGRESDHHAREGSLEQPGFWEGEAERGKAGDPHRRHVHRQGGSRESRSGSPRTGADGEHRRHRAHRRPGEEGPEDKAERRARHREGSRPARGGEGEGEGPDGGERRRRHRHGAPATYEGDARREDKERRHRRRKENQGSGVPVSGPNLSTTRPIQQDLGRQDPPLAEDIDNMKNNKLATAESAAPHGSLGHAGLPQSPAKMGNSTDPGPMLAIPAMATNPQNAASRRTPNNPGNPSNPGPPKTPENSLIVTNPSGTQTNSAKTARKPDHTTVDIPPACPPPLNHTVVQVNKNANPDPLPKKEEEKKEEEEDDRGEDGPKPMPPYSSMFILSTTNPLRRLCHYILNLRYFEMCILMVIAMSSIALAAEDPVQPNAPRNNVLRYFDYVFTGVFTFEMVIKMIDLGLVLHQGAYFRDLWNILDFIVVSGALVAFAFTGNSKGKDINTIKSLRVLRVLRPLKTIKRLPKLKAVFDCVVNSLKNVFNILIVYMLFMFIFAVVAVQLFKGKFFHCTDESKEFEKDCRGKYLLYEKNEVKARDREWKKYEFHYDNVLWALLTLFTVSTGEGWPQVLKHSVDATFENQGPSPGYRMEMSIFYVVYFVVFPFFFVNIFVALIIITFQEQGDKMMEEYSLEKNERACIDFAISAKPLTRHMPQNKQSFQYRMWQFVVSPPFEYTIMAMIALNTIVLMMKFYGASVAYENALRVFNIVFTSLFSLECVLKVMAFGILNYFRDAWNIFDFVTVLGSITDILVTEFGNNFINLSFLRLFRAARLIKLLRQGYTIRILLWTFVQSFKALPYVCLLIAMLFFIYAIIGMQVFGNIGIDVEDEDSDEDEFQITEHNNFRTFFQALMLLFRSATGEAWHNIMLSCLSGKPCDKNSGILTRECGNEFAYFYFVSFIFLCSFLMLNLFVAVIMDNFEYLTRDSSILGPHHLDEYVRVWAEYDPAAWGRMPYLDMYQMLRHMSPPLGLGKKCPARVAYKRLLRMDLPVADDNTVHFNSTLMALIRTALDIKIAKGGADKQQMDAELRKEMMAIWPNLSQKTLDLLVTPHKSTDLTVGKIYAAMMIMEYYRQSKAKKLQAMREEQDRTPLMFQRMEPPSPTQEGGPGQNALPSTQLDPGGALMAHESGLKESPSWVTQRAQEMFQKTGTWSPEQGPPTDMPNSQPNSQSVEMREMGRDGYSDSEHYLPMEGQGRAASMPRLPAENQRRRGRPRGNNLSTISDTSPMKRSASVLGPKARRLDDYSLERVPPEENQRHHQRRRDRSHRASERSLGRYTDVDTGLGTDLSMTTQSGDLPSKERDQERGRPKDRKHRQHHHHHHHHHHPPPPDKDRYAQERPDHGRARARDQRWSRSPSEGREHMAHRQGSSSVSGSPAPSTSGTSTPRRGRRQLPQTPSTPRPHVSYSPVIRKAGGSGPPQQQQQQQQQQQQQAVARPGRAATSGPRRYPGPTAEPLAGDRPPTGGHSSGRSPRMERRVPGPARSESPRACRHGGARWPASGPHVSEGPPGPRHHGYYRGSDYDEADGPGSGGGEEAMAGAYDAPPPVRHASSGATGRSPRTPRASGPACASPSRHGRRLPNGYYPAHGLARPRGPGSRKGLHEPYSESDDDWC
Express the result in % but write the number alone.

Answered examples (4):
Substance	Tested on	Measured
24 (GSSCAKPGEMCMRIKCCDGQCGCNRGTGRCFCK) [compound 24]	Cav2.1 (Homo sapiens, UniProt O00555)	121
38 (GSGIGDPVTCLKSGAICHPVFCPRRYKQIGTCGLPGTKCCKKP) [compound 38]	Cav2.1 (Homo sapiens, UniProt O00555)	93
21 (GSAEIIRCSGTRECYAPCQKLTGCLNAKCMNKACKCYGCV) [compound 21]	Cav2.1 (Homo sapiens, UniProt O00555)	106
10 (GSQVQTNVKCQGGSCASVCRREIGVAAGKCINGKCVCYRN) [compound 10]	Cav2.1 (Homo sapiens, UniProt O00555)	96

# next substance below
I have this substance here, 4 (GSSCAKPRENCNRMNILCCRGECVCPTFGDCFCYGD) [compound 4] , and I need its recorded Activity of Cav2.1 with peptide (percentage of the reference compound).
130
